Provenance of the data: ChEMBL document CHEMBL1124798

experimental.target: Delta-type opioid receptor (Mus musculus) (UniProt P32300)
Sequence (P32300 whole entry): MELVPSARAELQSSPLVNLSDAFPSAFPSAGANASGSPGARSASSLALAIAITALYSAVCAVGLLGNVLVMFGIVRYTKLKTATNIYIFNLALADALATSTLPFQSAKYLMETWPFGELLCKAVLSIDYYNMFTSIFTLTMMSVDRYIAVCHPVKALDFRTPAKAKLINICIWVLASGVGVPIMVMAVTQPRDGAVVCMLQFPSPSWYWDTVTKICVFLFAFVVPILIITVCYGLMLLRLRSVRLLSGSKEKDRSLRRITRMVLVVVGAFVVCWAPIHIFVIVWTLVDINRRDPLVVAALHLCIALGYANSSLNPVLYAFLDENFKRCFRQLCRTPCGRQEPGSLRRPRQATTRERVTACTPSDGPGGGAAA
protocol.description: Opioid receptor delta antagonistic activity was measured by the displacement of DADLE in the mouse vas deferens at a concentration of 100 nM
Format: functional
For each entry below, report its IC50 ratio value.
Give bare numbers.

Reference set, count: 3
Oc1ccc2c3c1O[C@H]1c4c(c5ccccc5n4-c4ccccc4)C[C@@]4(O)[C@@H](C2)N(CC2CC2)CC[C@]314 :: 33
C=CCN1CC[C@]23c4c5ccc(O)c4O[C@H]2c2[nH]c4ccccc4c2C[C@@]3(O)[C@H]1C5 :: 93
Oc1ccc2c3c1O[C@H]1c4[nH]c5cc6ccccc6cc5c4C[C@@]4(O)[C@@H](C2)N(CC2CC2)CC[C@]314 :: 4.7

Please turn your attention to the following entry.
Q) Reported IC50 ratio for Oc1ccc2c3c1O[C@H]1c4[nH]c5cc(F)ccc5c4C[C@@]4(O)[C@@H](C2)N(CC2CC2)CC[C@]314 : what is it?
A) 24
